B1: POU domain, class 4, transcription factor 1, residues 266 to 347; numbered along this chain, Q01851 (parent)
chain: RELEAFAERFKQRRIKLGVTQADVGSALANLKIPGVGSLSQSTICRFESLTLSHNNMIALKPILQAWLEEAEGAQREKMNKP

Variants of: B1
Test: abundance fitness (aPCA) (normalised: wild type 0, dead -1); higher = more abundant; growth selection in yeast, the domain comes from the species named
Details: Homo sapiens
Use abundance fitness to assign classes; range list: category 1 = under -0.2, category 2 = from -0.2 up to -0.02, category 3 = -0.02 and over

[[record]]
mutation_spec = "M79Y"
assigned_label = "category 3"

[[record]]
mutation_spec = "K11V"
assigned_label = "category 2"

[[record]]
mutation_spec = "N80L"
assigned_label = "category 2"

[[record]]
mutation_spec = "K61Y"
assigned_label = "category 3"

[[record]]
mutation_spec = "E69L"
assigned_label = "category 2"

[[record]]
mutation_spec = "S26A"
assigned_label = "category 3"

[[record]]
mutation_spec = "F6I"
assigned_label = "category 1"

[[record]]
mutation_spec = "L39I"
assigned_label = "category 3"

[[record]]
mutation_spec = "R1H"
assigned_label = "category 1"

[[record]]
mutation_spec = "P34M"
assigned_label = "category 2"

[[record]]
mutation_spec = "L52R"
assigned_label = "category 1"

[[record]]
mutation_spec = "L3D"
assigned_label = "category 1"

[[record]]
mutation_spec = "K32V"
assigned_label = "category 3"

[[record]]
mutation_spec = "K11A"
assigned_label = "category 2"

[[record]]
mutation_spec = "Q65P"
assigned_label = "category 1"

[[record]]
mutation_spec = "G37V"
assigned_label = "category 2"

[[record]]
mutation_spec = "S42A"
assigned_label = "category 3"

[[record]]
mutation_spec = "E48M"
assigned_label = "category 1"

[[record]]
mutation_spec = "I58F"
assigned_label = "category 2"

[[record]]
mutation_spec = "T43C"
assigned_label = "category 2"

[[record]]
mutation_spec = "S38V"
assigned_label = "category 3"

[[record]]
mutation_spec = "M79I"
assigned_label = "category 3"

[[record]]
mutation_spec = "E48T"
assigned_label = "category 1"

[[record]]
mutation_spec = "A27R"
assigned_label = "category 2"

[[record]]
mutation_spec = "H54C"
assigned_label = "category 2"

[[record]]
mutation_spec = "P62T"
assigned_label = "category 2"

[[record]]
mutation_spec = "L39D"
assigned_label = "category 1"

[[record]]
mutation_spec = "N80Q"
assigned_label = "category 3"

[[record]]
mutation_spec = "L17H"
assigned_label = "category 1"

[[record]]
mutation_spec = "N55K"
assigned_label = "category 2"

[[record]]
mutation_spec = "K61N"
assigned_label = "category 1"

[[record]]
mutation_spec = "S40A"
assigned_label = "category 2"

[[record]]
mutation_spec = "Q41P"
assigned_label = "category 3"

[[record]]
mutation_spec = "A7M"
assigned_label = "category 1"

[[record]]
mutation_spec = "N80P"
assigned_label = "category 3"

[[record]]
mutation_spec = "A5R"
assigned_label = "category 3"

[[record]]
mutation_spec = "K11L"
assigned_label = "category 1"

[[record]]
mutation_spec = "E48K"
assigned_label = "category 1"

[[record]]
mutation_spec = "L39T"
assigned_label = "category 2"

